# Assayed System: SARS-COV-2 RBD-MMH (SARS-CoV-2)
# Test Name: SPR 37C, run with dissociation at pH 5.0
Assay Readout: koff (s⁻¹)
Give bare numbers, in s⁻¹.

Binder	Unit String	koff
mAb15165 (antibody, V domains shown) VH: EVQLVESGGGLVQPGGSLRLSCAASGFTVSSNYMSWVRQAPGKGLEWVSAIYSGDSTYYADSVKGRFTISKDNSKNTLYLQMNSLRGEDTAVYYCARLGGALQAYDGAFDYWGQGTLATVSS VL: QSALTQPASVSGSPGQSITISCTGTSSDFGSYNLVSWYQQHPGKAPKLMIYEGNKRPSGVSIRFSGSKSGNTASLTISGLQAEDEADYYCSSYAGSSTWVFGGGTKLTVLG	s⁻¹	0.000973
mAb15160 (antibody, V domains shown) VH: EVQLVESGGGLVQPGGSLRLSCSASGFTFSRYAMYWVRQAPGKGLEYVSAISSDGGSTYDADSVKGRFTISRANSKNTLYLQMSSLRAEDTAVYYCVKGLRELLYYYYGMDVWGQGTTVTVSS VL: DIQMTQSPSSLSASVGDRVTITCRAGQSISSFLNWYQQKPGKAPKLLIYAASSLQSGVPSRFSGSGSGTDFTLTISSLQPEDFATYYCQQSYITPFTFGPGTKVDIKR	s⁻¹	0.00228

Field: next binder
// koff lookup, key: mAb15157 (antibody, V domains shown) VH: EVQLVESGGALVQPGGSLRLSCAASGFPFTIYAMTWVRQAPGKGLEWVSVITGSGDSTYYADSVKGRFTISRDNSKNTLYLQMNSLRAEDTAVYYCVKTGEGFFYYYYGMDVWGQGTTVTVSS VL: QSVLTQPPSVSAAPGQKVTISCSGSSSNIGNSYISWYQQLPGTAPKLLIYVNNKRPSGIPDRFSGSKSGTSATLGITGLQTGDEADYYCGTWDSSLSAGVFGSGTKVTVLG
0.00702
